Below, each entry is listed alongside its reported viability, T/C.
system: 931267-113-T-J1-PDC multicell spheroid viability; experiment: Anticancer human tumor 931267-113-T-J1-PDC patient-derived colon adenocarcinoma cell line growth inhibition [PI3K]; conditions: second compound 0.0316 µM; first compound 0.316 µM; active compounds read low
Response body: numeric value in %, unit text excluded.

compound	viability, T/C [%]
CC(Cn1ccc(-c2ccc(C#N)c(Cl)c2)n1)NC(=O)c1cc(C(C)O)[nH]n1 (stereo not drawn) + COc1c(OCCCN2CCOCC2)ccc2c3n(c(=NC(=O)c4cnc(N)nc4)nc12)CCN3	78.6

Enquiry: Give the reported viability, T/C for C#Cc1c(F)ccc2cc(O)cc(-c3ncc4c(N5CC6CCC(C5)N6)nc(OCC56CCCN5CC(F)C6)nc4c3F)c12 (stereo not drawn) + Cc1nc(NC(=O)N2CCCC2C(N)=O)sc1-c1ccnc(C(C)(C)C(F)(F)F)c1 (system: 931267-113-T-J1-PDC multicell spheroid viability).
Return: 50.4

Enquiry: Give the reported viability, T/C for CNC(=O)c1ccc(N2C(=S)N(c3ccc(C#N)c(C(F)(F)F)c3)C(=O)C2(C)C)cc1F + Cc1nc(NC(=O)N2CCCC2C(N)=O)sc1-c1ccnc(C(C)(C)C(F)(F)F)c1 (system: 931267-113-T-J1-PDC multicell spheroid viability).
Return: 95.4

---

system: 931267-113-T-J1-PDC multicell spheroid viability; assay: Anticancer human tumor 931267-113-T-J1-PDC cell line growth inhibition [PI3K]; conditions: second compound 1 µM; first compound 3.16 µM; active compounds read low;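 also: viability read 7 days after compound addition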
Mark class 1 only for viability, T/C values smaller than 70%; exact matches and larger values are class 0.

The examples below pair each entry with its known result.
molecule	target.desc	class
C=CC(=O)N1CCN(c2nc(=O)n(-c3c(C)ccnc3C(C)C)c3nc(-c4c(O)cccc4F)c(F)cc23)C(C)C1 (stereo not given) + CC(Nc1ccc2c(c1)OCCn1cc(N3C(=O)OCC3C(F)F)nc1-2)C(N)=O	931267-113-T-J1-PDC multicell spheroid viability	class 0
CCCS(=O)(=O)Nc1ccc(F)c(C(=O)c2c[nH]c3ncc(-c4ccc(Cl)cc4)cc23)c1F + CC(Nc1ccc2c(c1)OCCn1cc(N3C(=O)OCC3C(F)F)nc1-2)C(N)=O	931267-113-T-J1-PDC multicell spheroid viability	class 0
C[C@@H](NC(=O)c1ncnc(N)c1Cl)c1ncc(C(=O)Nc2cc(C(F)(F)F)c(Cl)cn2)s1 + COc1c(OCCCN2CCOCC2)ccc2c3n(c(=NC(=O)c4cnc(N)nc4)nc12)CCN3	931267-113-T-J1-PDC multicell spheroid viability	class 1

Turning to the following molecule.
Enquiry: Answer whether the molecule C[C@@H](NC(=O)c1ncnc(N)c1Cl)c1ncc(C(=O)Nc2cc(C(F)(F)F)c(Cl)cn2)s1 + CC(Nc1ncnc2nc[nH]c12)c1cc2cccc(Cl)c2c(=O)n1-c1ccccc1 has viability, T/C strictly less than 70%
Return: class 0

---

Below, each entry is listed alongside its reported viability, T/C.
test system: 931267-113-T-J1-PDC multicell spheroid viability; experiment: Anticancer human tumor 931267-113-T-J1-PDC cell line growth inhibition [PI3K]; conditions: second compound 0.1 µM; first compound 0.000316 µM; active compounds read low;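 also: viability read 7 days after compound addition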
Response body: numeric value in %, unit text excluded.

Previously resolved entries follow.
compound	viability, T/C / %
CC(C)n1nc(-c2ccc3oc(N)nc3c2)c2c(N)ncnc21 + CC(Nc1ccc2c(c1)OCCn1cc(N3C(=O)OCC3C(F)F)nc1-2)C(N)=O	89.4
CC(=O)c1c(C)c2cnc(Nc3ccc(N4CCNCC4)cn3)nc2n(C2CCCC2)c1=O + CC(Nc1ccc2c(c1)OCCn1cc(N3C(=O)OCC3C(F)F)nc1-2)C(N)=O	100
CC(=O)c1c(C)c2cnc(Nc3ccc(N4CCNCC4)cn3)nc2n(C2CCCC2)c1=O + CC(Nc1ncnc2nc[nH]c12)c1cc2cccc(Cl)c2c(=O)n1-c1ccccc1	106

Enquiry: Form field: reported viability, T/C of Cn1ncnc1[C@H]1c2n[nH]c(=O)c3cc(F)cc(c23)N[C@@H]1c1ccc(F)cc1 + COc1c(OCCCN2CCOCC2)ccc2c3n(c(=NC(=O)c4cnc(N)nc4)nc12)CCN3
Return: 70.2

Enquiry: Form field: reported viability, T/C of CC(C)n1nc(-c2ccc3oc(N)nc3c2)c2c(N)ncnc21 + Cc1nc(NC(=O)N2CCCC2C(N)=O)sc1-c1ccnc(C(C)(C)C(F)(F)F)c1
Return: 97.3

---

tested on: 931267-113-T-J1-PDC multicell spheroid viability; assay: Anticancer human tumor 931267-113-T-J1-PDC cell line growth inhibition [PI3K]; conditions: second compound 0.316 µM; first compound 0.949 µM; active = viability on the fitted dose curve at most 10% of control; inactive = the rest;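 also: viability read 7 days after compound addition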
Just give me one of these, please: active, inactive

molecule	class
Cn1cnc2c(F)c(Nc3ccc(Br)cc3Cl)c(C(=O)NOCCO)cc21 + CC(Nc1ccc2c(c1)OCCn1cc(N3C(=O)OCC3C(F)F)nc1-2)C(N)=O	inactive
Cn1cnc2c(F)c(Nc3ccc(Br)cc3Cl)c(C(=O)NOCCO)cc21 + COc1c(OCCCN2CCOCC2)ccc2c3n(c(=NC(=O)c4cnc(N)nc4)nc12)CCN3	active
Cn1cnc2c(F)c(Nc3ccc(Br)cc3Cl)c(C(=O)NOCCO)cc21 + Cc1nc(NC(=O)N2CCCC2C(N)=O)sc1-c1ccnc(C(C)(C)C(F)(F)F)c1	inactive

Turning to the following molecule.
Enquiry: Each molecule tested received a call. Report the one for Cn1cnc2c(F)c(Nc3ccc(Br)cc3Cl)c(C(=O)NOCCO)cc21 + CC(Nc1ncnc2nc[nH]c12)c1cc2cccc(Cl)c2c(=O)n1-c1ccccc1 .
Return: inactive

---

test system: 931267-113-T-J1-PDC multicell spheroid viability; assay: Anticancer human tumor 931267-113-T-J1-PDC cell line growth inhibition [PI3K]; details: second compound 1 µM; first compound 3.16 µM; active compounds read low;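 also: viability read 7 days after compound addition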
Below, each entry is listed alongside its reported viability, T/C.
Response body: numeric value in %, unit text excluded.

molecule	measurement.label	readout.units	readout.value
CC(Cn1ccc(-c2ccc(C#N)c(Cl)c2)n1)NC(=O)c1cc(C(C)O)[nH]n1 (stereo not given) + CC(Nc1ccc2c(c1)OCCn1cc(N3C(=O)OCC3C(F)F)nc1-2)C(N)=O	viability, T/C	%	76.1
Cn1nccc1Nc1nccc(-c2ccn(C(CO)c3ccc(Cl)c(F)c3)c(=O)c2)n1 (stereo not given) + Cc1nc(NC(=O)N2CCCC2C(N)=O)sc1-c1ccnc(C(C)(C)C(F)(F)F)c1	viability, T/C	%	39.5

Enquiry: Form field: reported viability, T/C of CC(C)NCC(C(=O)N1CCN(c2ncnc3c2C(C)CC3O)CC1)c1ccc(Cl)cc1 (stereo not given) + CC(Nc1ccc2c(c1)OCCn1cc(N3C(=O)OCC3C(F)F)nc1-2)C(N)=O
Return: 82.9

Enquiry: Form field: reported viability, T/C of Cn1ncc(Cl)c1-c1cc(C(=O)NC(CN)Cc2cccc(F)c2)sc1Cl (stereo not given) + CC(Nc1ccc2c(c1)OCCn1cc(N3C(=O)OCC3C(F)F)nc1-2)C(N)=O
Return: 54.7

Enquiry: Form field: reported viability, T/C of C#Cc1c(F)ccc2cc(O)cc(-c3ncc4c(N5CC6CCC(C5)N6)nc(OCC56CCCN5CC(F)C6)nc4c3F)c12 (stereo not given) + CC(Nc1ccc2c(c1)OCCn1cc(N3C(=O)OCC3C(F)F)nc1-2)C(N)=O
Return: 14.7

Enquiry: Form field: reported viability, T/C of CC1(C)CCC(Nc2ncc(C(F)(F)F)c(-c3c[nH]c4c(P(C)(C)=O)c(C#N)ccc34)n2)CN1 (stereo not given) + CC(Nc1ncnc2nc[nH]c12)c1cc2cccc(Cl)c2c(=O)n1-c1ccccc1
Return: 96.5

Enquiry: Form field: reported viability, T/C of CC1(C)CCC(CN2CCN(c3ccc(C(=O)NS(=O)(=O)c4ccc(NCC5CCOCC5)c([N+](=O)[O-])c4)c(Oc4cnc5[nH]ccc5c4)c3)CC2)=C(c2ccc(Cl)cc2)C1 + CC(Nc1ccc2c(c1)OCCn1cc(N3C(=O)OCC3C(F)F)nc1-2)C(N)=O
Return: 63.3

Enquiry: Form field: reported viability, T/C of CC1(C)CCC(CN2CCN(c3ccc(C(=O)NS(=O)(=O)c4ccc(NCC5CCOCC5)c([N+](=O)[O-])c4)c(Oc4cnc5[nH]ccc5c4)c3)CC2)=C(c2ccc(Cl)cc2)C1 + COc1c(OCCCN2CCOCC2)ccc2c3n(c(=NC(=O)c4cnc(N)nc4)nc12)CCN3
Return: 33.7

Enquiry: Form field: reported viability, T/C of Cn1nccc1Nc1nccc(-c2ccn(C(CO)c3ccc(Cl)c(F)c3)c(=O)c2)n1 (stereo not given) + COc1c(OCCCN2CCOCC2)ccc2c3n(c(=NC(=O)c4cnc(N)nc4)nc12)CCN3
Return: 9.42

Enquiry: Form field: reported viability, T/C of CCCS(=O)(=O)Nc1ccc(F)c(C(=O)c2c[nH]c3ncc(-c4ccc(Cl)cc4)cc23)c1F + CC(Nc1ncnc2nc[nH]c12)c1cc2cccc(Cl)c2c(=O)n1-c1ccccc1
Return: 109
